Hey, just so you know, these numbers are from patent US20190309034A1.

molecular target: Recombinant soluble 60-mer human BAFF (His-HuBAFF 134-285) (human, UniProt Q9Y275 134-285); assay: cell-based or functional assay
// NB: equality with 10 pM counts as False; only Soluble 60-mer huBAFF (4 pM) Neutralization IC50 strictly below is True

Please determine if 1094C4E6 (antibody, V domains shown) VH: EVQLQQSGAELVRPGASVKLSCTASGFNIKDDYMHWVKQTPEQGLEWIGRIDPAYGNGKYVPKFQDKATITADTSSNTAYLQLSSLTSEDTAVYYCARRYYAVSSVDYALDYWGQGTSVTVSS VL: DIVMTQSHKFMSTSVGDRVTITCKASQDVATAVAWYQQKPGQSPKLLIYWASTRHTGVPDRFTGSGSGTDFTLTISNVQSEDLANYFCQQYSNYPYTFGGGTTLEIK is below 10 pM in terms of Soluble 60-mer huBAFF (4 pM) Neutralization IC50.
False

Problem: For the binder Reference 2 (antibody, human IgG1, lambda, V domains shown, Comparator anti-BAFF antibody) VH: QVQLQQSGAEVKKPGSSVRVSCKASGGTFNNNAINWVRQAPGQGLEWMGGIIPMFGTAKYSQNFQGRVAITADESTGTASMELSSLRSEDTAVYYCARSRDLLLFPHHALSPWGRGTMVTVSS VL: SSELTQDPAVSVALGQTVRVTCQGDSLRSYYASWYQQKPGQAPVLVIYGKNNRPSGIPDRFSGSSSGNTASLTITGAQAEDEADYYCSSRDSSGNHWVFGGGTELTVLG , is Soluble 60-mer huBAFF (4 pM) Neutralization IC50 under 10 pM?
False

Does 409F12A11 (antibody, V domains shown) VH: IQLQQSGPELVKPGASMKISCKASGYTFTDKYINWVKQRPGQGLEWIGWIYPGSGNTKYNEKFKGMATLTVDTSSNTAYIHLSSLTSEDSAVYFCARGIIYYYDGSYPYALDYWGQGTSVTVSS VL: DIVLTQSPASLALSLGQRATISCRATKGVSKSGYSYMHWYQQKPGQPPKLLIYLASNLESGVPARFSGSGSGTDFTLNIHPVEEEDVATYYCQHSRELPLTFGAGTKLELK have Soluble 60-mer huBAFF (4 pM) Neutralization IC50 strictly under 10 pM?
False

Consider the binder 440E9D12 (antibody, V domains shown) VH: QVRLRESGPGLVAPSQNLFITCTVSGFSLTDYEINWVRQPPGKNLEWLGVIWTGGGTKYNSVLISRLNISKDNSKRQVFFKMTSLQTDDTAIYYCVREGRRYYAMDYWGQGTSVTVSS VL: NIVLTQSPASLPVSLGQRATMSCRASKSVDSYGTSFMHWYQHRPGQPPKLLISLASNLESGVPGRFSGSGSRTDFTLTIDPVEPDDAATYYCQQNNEDPRTFGGGTTLEIK . Is its Soluble 60-mer huBAFF (4 pM) Neutralization IC50 strictly less than 10 pM?
False

# check: Soluble 60-mer huBAFF (4 pM) Neutralization IC50 < 10 pM for 418F6D9 (antibody, V domains shown) VH: QVQLQQSGPELVKPGASVKLSCKASGYTFTDYSIHWVKQSPGQGLEWIGWIYPGSGNTKYNDKFKGKATMTADKSSRTVYMQLSSLTSEESAVYFCARDYRRYYAIDYWGQGTSVTVSS VL: IVLTQSSASLAVSLGQRATISCRASESVDSYGNSLMHWYQQKPGQPPKLLIYIASNLESGVPARFSGSGSRTDFTLTIDPVEADDAATYYCQQNSEDPRTFGGGTKLEIK
False

is_below(Soluble 60-mer huBAFF (4 pM) Neutralization IC50, 10 pM) for 1070A6B7 (antibody, V domains shown) VH: QVPLQQPGAEMVRPGASMRLSCKASGYTFPGYWMHWVKQRPRQGLEWIAKIDPSDSETHYNQNFKDKATLTVDKYSNTVYMQLNSLTSEDSAVYYCANEGWDSLTKVWFGWWGQGTLVTVSA VL: DVVMTQTPLSLPVSLGDQASISCRCSQSLVHSNGNTYLHWYLQKPGQSPKLLIYKVSDRFSGVPDRFSGSGSGTDFTLRISRVEADDLGVYFCSQSTHVPLTFGAGTKLELK ?
False
